For each of the binders below, state its ADCC EC50, NCI-N87-18.2 cells, FcR-TANK effectors.
target: human Claudin 18.2 (CLDN18.2) (human, UniProt P56856-2 1-261); experiment: cell-based or functional assay
Give a bare numeral; the unit nM is implied.

**Query** Sample 413H9F8-VL-S32V (antibody, human IgG1, kappa, V domains shown, chimeric human IgG1, PTM site removed; also called 413H9F8-VL-32V; 413H9F8-VL-532V) VH: DVQLVESGGGSVQPGGSRRLSCAASGFTFSSFGMHWVRQAPEKGLEWVAYISSGSSPIYYVDKLKGRFTVSRDNPKNTLFLQMTSLRSEDTAMYYCARAGYAVRNALDYWGQGTSITVSS VL: DIVMTQSPSSLSVSVGEKVTLSCKSSQSLLNVGNQKNYLAWYQQKTGQPPKLLIYGASTRESGVPDRFIGSGSGTDFTLTISSVQAEDLAVYFCQNDLFYPLTFGAGTKLELKR — what was its ADCC EC50, NCI-N87-18.2 cells, FcR-TANK effectors?
**Result** 7.84

**Query** Sample 357B8F8-VH-S61I-VL-S32I (antibody, human IgG1, kappa, V domains shown) VH: QVQLKESGPGLVAPSQSLSITCTVSGFSLTSYGVHWVRQPPGKGLEWLGVIWPGGNTNYNIALMSRLSISKDNSKSQVFLKMNSLQTDDTAMYYCARDRRLAMDYWGQGTSVTVSS VL: DIVMTQSPSSLTVTAGEKVTMTCKSSQSLLNIGNQKNYLTWYQQKPGQPPKLLIYWASTRESGVPDRFTGSGSGTDFTLTISILQAEDLAVYYCQNDYSYPFTFGSGTKLEIKR — what was its ADCC EC50, NCI-N87-18.2 cells, FcR-TANK effectors?
**Result** 159

**Query** Sample 364D1A7-VL-S32L (antibody, human IgG1, kappa, V domains shown) VH: DVQLVESGGGLVQPGGSRKLSCAASGFTFSSFGMHWVRQAPEKGLEWVAYISSGSGSIYYADTVKGRFTLSRDNPKNTLFLQMTSLRSEDTAIYYCATSYYYGNALEYWGQGTSVTVSS VL: DVVLTQSPSSLTVTEGEKVSMSCKSSQSLFNLGNQKNYLTWYQQKPGQTPTLLIYWASTRKSGVPDRFTGSGSGTDFTLTINTVQAEDLAVYYCQNVYSYPLTFGAGTKLDLKR — what was its ADCC EC50, NCI-N87-18.2 cells, FcR-TANK effectors?
**Result** 9.56

**Query** Sample 413H9F8-VL-S32L (antibody, human IgG1, kappa, V domains shown) VH: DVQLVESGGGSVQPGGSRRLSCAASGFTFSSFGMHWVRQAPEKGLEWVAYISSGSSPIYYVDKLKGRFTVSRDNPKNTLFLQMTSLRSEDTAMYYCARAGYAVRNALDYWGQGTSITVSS VL: DIVMTQSPSSLSVSVGEKVTLSCKSSQSLLNLGNQKNYLAWYQQKTGQPPKLLIYGASTRESGVPDRFIGSGSGTDFTLTISSVQAEDLAVYFCQNDLFYPLTFGAGTKLELKR — what was its ADCC EC50, NCI-N87-18.2 cells, FcR-TANK effectors?
**Result** 8.56

**Query** Sample 364D1A7-VL-S32V (antibody, human IgG1, kappa, V domains shown, chimeric human IgG1, PTM site removed; also called 364D1A7-VL-32V) VH: DVQLVESGGGLVQPGGSRKLSCAASGFTFSSFGMHWVRQAPEKGLEWVAYISSGSGSIYYADTVKGRFTLSRDNPKNTLFLQMTSLRSEDTAIYYCATSYYYGNALEYWGQGTSVTVSS VL: DVVLTQSPSSLTVTEGEKVSMSCKSSQSLFNVGNQKNYLTWYQQKPGQTPTLLIYWASTRKSGVPDRFTGSGSGTDFTLTINTVQAEDLAVYYCQNVYSYPLTFGAGTKLDLKR — what was its ADCC EC50, NCI-N87-18.2 cells, FcR-TANK effectors?
**Result** 12
